molecular target: Transmembrane protease serine 4 (Homo sapiens) (UniProt Q9NRS4); experiment: Inhibition of TMPRSS4 serine protease domain (Val 205 to Leu 437 residues) (unknown origin) expressed in Escherichia coli BL21 (DE3) at 100 uM using […]-Gln-Ala-Arg-7-amido-4-methylcoumarin hydrochloride substrate and measured for 5 mins at 5 mins intervals by fluorescence based assay relative to control
Sequence (Q9NRS4 whole entry, the tested form may be a part): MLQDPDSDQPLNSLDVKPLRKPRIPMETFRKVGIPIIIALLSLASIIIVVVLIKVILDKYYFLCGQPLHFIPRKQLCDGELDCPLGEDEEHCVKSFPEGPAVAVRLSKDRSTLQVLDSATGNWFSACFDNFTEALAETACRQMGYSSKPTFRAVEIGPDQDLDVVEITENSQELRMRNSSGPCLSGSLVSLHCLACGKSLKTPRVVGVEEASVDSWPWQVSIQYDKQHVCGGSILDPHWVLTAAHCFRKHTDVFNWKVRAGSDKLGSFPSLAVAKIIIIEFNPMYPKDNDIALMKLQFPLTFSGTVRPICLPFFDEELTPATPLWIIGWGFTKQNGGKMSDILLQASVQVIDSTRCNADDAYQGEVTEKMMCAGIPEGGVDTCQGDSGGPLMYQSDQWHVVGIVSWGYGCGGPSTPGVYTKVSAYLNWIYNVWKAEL
assayEndpoint: inhibition

1) O=C(Nc1ncc(C(F)(F)F)cc1Cl)c1cc(Cl)ccc1O	0%
2) O=C(Nc1ccc(C(F)(F)F)cn1)c1cc(Cl)ccc1O	47%
3) O=C(Nc1ccc(Br)c(C(F)(F)F)c1)c1cc(Cl)ccc1O	98%
4) O=C(Nc1ccccn1)c1cc(Cl)ccc1O	11%
5) O=C(Nc1nc(-c2ccccc2)cs1)c1cc(Cl)ccc1O	98%
6) O=C(Nc1ccc(Cl)c(C(F)(F)F)c1)c1cc(Cl)ccc1O	99%
7) O=C(Nc1nccs1)c1cc(Cl)ccc1O	90%
8) O=C(Nc1nc(C(F)(F)F)cs1)c1cc(Cl)ccc1O	100%
9) O=C(Nc1ccc(F)c(C(F)(F)F)c1)c1cc(Cl)ccc1O	98%
10) COc1cc(NC(=O)c2cc(Cl)ccc2O)cc(C(F)(F)F)c1	99%
11) O=C(Nc1cc(C(F)(F)F)cc(C(F)(F)F)c1)c1cc(Cl)ccc1O	100%
12) N#Cc1ccc(NC(=O)c2cc(Cl)ccc2O)c(Cl)c1	100%
13) Cc1csc(NC(=O)c2cc(Cl)ccc2O)n1	67%
14) O=C(Nc1ncccn1)c1cc(Cl)ccc1O	2%
15) O=C(Nc1ccc(Cl)nc1)c1cc(Cl)ccc1O	39%
16) O=C(Nc1cc(C(F)(F)F)ccc1Cl)c1cc(Cl)ccc1O	100%
17) N#Cc1ccc(NC(=O)c2cc(Cl)ccc2O)cc1	69%
18) O=C(Nc1c(F)c(F)nc(F)c1F)c1cc(Cl)ccc1O	51%

###

# inhibition per record follows
biological target: Transmembrane protease serine 4 (Homo sapiens); experiment: Inhibition of TMPRSS4 serine protease domain (Val 205 to Leu 437 residues) (unknown origin) expressed in Escherichia coli BL21 (DE3) at 30 uM using […]-Gln-Ala-Arg-7-amido-4-methylcoumarin hydrochloride substrate and measured for 5 mins at 5 mins intervals by fluorescence based assay relative to control
assayEndpoint: inhibition (%)

1) O=C(Nc1cc(C(F)(F)F)c(Br)c(C(F)(F)F)c1)c1cc(Cl)ccc1O	85
2) O=C(Nc1ccc(C(F)(F)F)cc1[N+](=O)[O-])c1cc(Cl)ccc1O	98
3) O=C(Nc1ncccn1)c1cc(Cl)ccc1O	0
4) O=C(Nc1cc(C(F)(F)F)cc(C(F)(F)F)c1)c1ccc(Cl)cc1O	74
5) O=C(Nc1ccc(F)c(C(F)(F)F)c1)c1cc(Cl)ccc1O	86
6) O=C(Nc1cc(Cl)c(Cl)c(Cl)c1)c1cc(Cl)ccc1O	23
7) CC(=O)Oc1ccc(Cl)cc1C(=O)Nc1cc(C(F)(F)F)cc(C(F)(F)F)c1	4
8) N#Cc1cccc(NC(=O)c2cc(Cl)ccc2O)c1	47
9) O=C(Nc1ccc(C(F)(F)F)cn1)c1cc(Cl)ccc1O	25

###

target: Transmembrane protease serine 4 (Homo sapiens) (UniProt Q9NRS4); assay: Inhibition of TMPRSS4 serine protease domain (Val 205 to Leu 437 residues) (unknown origin) expressed in Escherichia coli BL21 (DE3) at 10 uM using […]-Gln-Ala-Arg-7-amido-4-methylcoumarin hydrochloride substrate and measured for 5 mins at 5 mins intervals by fluorescence based assay relative to control
# binarize inhibition: threshold 30% inclusive, high side Condition met, low side Condition not met

1) O=C(Nc1cc(C(F)(F)F)cc(C(F)(F)F)c1)c1cc(Cl)ccc1O	Condition met
2) O=C(Nc1cc(C(F)(F)F)cc(C(F)(F)F)c1)c1ccc(Cl)cc1O	Condition not met
3) O=C(Nc1cc(C(F)(F)F)cc(C(F)(F)F)c1)c1cc2ccccc2cc1O	Condition met
4) O=C(Nc1ccc(Cl)c(C(F)(F)F)c1)c1cc(Cl)ccc1O	Condition met
5) Cc1cc(Cl)cc(C(=O)Nc2cc(C(F)(F)F)cc(C(F)(F)F)c2)c1O	Condition met
6) COc1cc(NC(=O)c2cc(Cl)ccc2O)cc(C(F)(F)F)c1	Condition met
7) O=C(Nc1cc(C(F)(F)F)cc(C(F)(F)F)c1)c1cc([N+](=O)[O-])ccc1O	Condition met
8) O=C(Nc1cc(Cl)c(Cl)c(Cl)c1)c1cc(Cl)ccc1O	Condition not met
9) COc1ccc(O)c(C(=O)Nc2cc(C(F)(F)F)cc(C(F)(F)F)c2)c1	Condition not met
10) O=C(Nc1cc(C(F)(F)F)cc(C(F)(F)F)c1)c1cc(-c2ccc(F)cc2F)ccc1O	Condition not met
11) NC(=O)c1ccc(O)c(C(=O)Nc2cc(C(F)(F)F)cc(C(F)(F)F)c2)c1	Condition not met
12) N#Cc1ccc(O)c(C(=O)Nc2cc(C(F)(F)F)cc(C(F)(F)F)c2)c1	Condition not met
13) O=C(Nc1cc(C(F)(F)F)cc(C(F)(F)F)c1Cl)c1cc(Cl)ccc1O	Condition met
14) O=C(Nc1cccc(C(F)(F)F)c1)c1cc(Cl)ccc1O	Condition met
15) O=C(Nc1cc(C(F)(F)F)cc(C(F)(F)F)c1)c1cc(Br)ccc1O	Condition met
16) Nc1ccc(O)c(C(=O)Nc2cc(C(F)(F)F)cc(C(F)(F)F)c2)c1	Condition not met
17) Cc1c(C(F)(F)F)cc(NC(=O)c2cc(Cl)ccc2O)cc1C(F)(F)F	Condition met
18) Cc1ccc(O)c(C(=O)Nc2cc(C(F)(F)F)cc(C(F)(F)F)c2)c1	Condition not met
19) O=C(Nc1cc(C(F)(F)F)cc(C(F)(F)F)c1)c1cc(Cl)ccc1OCc1ccccc1	Condition not met

###

# inhibition per record follows
biological target: Transmembrane protease serine 4 (Homo sapiens) (UniProt Q9NRS4); assay: Inhibition of TMPRSS4 serine protease domain (Val 205 to Leu 437 residues) (unknown origin) expressed in Escherichia coli BL21 (DE3) at 30 uM using […]-Gln-Ala-Arg-7-amido-4-methylcoumarin hydrochloride substrate and measured for 5 mins at 5 mins intervals by fluorescence based assay relative to control
assayEndpoint: inhibition (%)

1) O=C(Nc1ccc(Cl)c(C(F)(F)F)c1)c1cc(Cl)ccc1O	95
2) COc1c(C(F)(F)F)cc(NC(=O)c2cc(Cl)ccc2O)cc1C(F)(F)F	80
3) O=C(Nc1ccccc1)c1cc(Cl)ccc1O	13
4) O=C(Nc1cc(C(F)(F)F)cc(C(F)(F)F)c1)c1cccc(Cl)c1O	93
